Data provenance is ChEMBL document CHEMBL1147697.

Assay: AUC in Beagle dog at 1 mg/kg, po
Assay type: ADME, organism-based, Canis lupus familiaris
Parameters: dose 1 mg/kg, route oral
Details: plasma
measurement name: AUC (µM·h)

INSERT INTO assay_data (sample_smiles, measured) VALUES
  ('Cc1cc(COc2ccc(C(=O)NC3(CC(=O)NO)CCNCC3)cc2)c2ccccc2n1', 0.343);

###

Reported remaining at 0.5 h values are given for each entry in this list.
Assay: Stability in human liver S9 fraction after 30 mins
Assay type: ADME, organism-based
Conditions: read-out: Stability
measurement name: remaining at 0.5 h (%)

INSERT INTO assay_data (sample_smiles, measurement_name, measured) VALUES
  ('Cc1cc(COc2ccc(C(=O)NC3(CC(=O)NO)CCOCC3)cc2)c2ccccc2n1', 'remaining at 0.5 h', 83.8),
  ('Cc1cc(COc2ccc(C(=O)NC3(CC(=O)NO)CCNCC3)cc2)c2ccccc2n1', 'remaining at 0.5 h', 92);

###

Assay: Dissociation constant, pKa of the compound
Type: physicochemical
measurement name: pKa

INSERT INTO results (sample_smiles, measured) VALUES
  ('C#CC(C)(C)N1CCC(CC(=O)NO)(NC(=O)c2ccc(OCc3cc(C)nc4ccccc34)cc2)CC1', 6.58),
  ('Cc1cc(COc2ccc(C(=O)NC3(CC(=O)NO)CCCCC3)cc2)c2ccccc2n1', 10.1),
  ('Cc1cc(COc2ccc(C(=O)NC3(CC(=O)NO)CCN(C4=NCCS4)CC3)cc2)c2ccccc2n1', 7.23);

###

Examples of molecules with documented pKa follow.
Test: Dissociation constant, pKa of the compound
Format: physicochemical
measurement name: pKa

INSERT INTO assay_data (sample_smiles, measurement_name, measured) VALUES
  ('Cc1cc(COc2ccc(C(=O)NC3(CC(=O)NO)CCN(CC(C)(C)C)CC3)cc2)c2ccccc2n1', 'pKa', 7.75),
  ('Cc1cc(COc2ccc(C(=O)NC3(CC(=O)NO)CCN(CCF)CC3)cc2)c2ccccc2n1', 'pKa', 7.2),
  ('Cc1cc(COc2ccc(C(=O)NC3(CC(=O)NO)CCN(C(C)(C)C)CC3)cc2)c2ccccc2n1', 'pKa', 9),
  ('CCS(=O)(=O)CCN1CCC(CC(=O)NO)(NC(=O)c2ccc(OCc3cc(C)nc4ccccc34)cc2)CC1', 'pKa', 6.06),
  ('Cc1cc(COc2ccc(C(=O)NC3(CC(=O)NO)CCNCC3)cc2)c2ccccc2n1', 'pKa', 8.4);

###

Test: Tmax in Sprague-Dawley rat at 30 mg/kg, po
Assay type: ADME, organism-based
Design: dose 30 mg/kg, route oral
Conditions: in vivo
measurement name: Tmax

INSERT INTO results (sample_smiles, measured) VALUES
  ('Cc1cc(COc2ccc(C(=O)NC3(CC(=O)NO)CCOCC3)cc2)c2ccccc2n1', '24 min');

###

Assay: Stability in dog liver S9 fraction after 30 mins
Assay type: ADME, organism-based, Canis lupus familiaris
Details: read-out: Stability
measurement name: remaining at 0.5 h (%)

INSERT INTO results (sample_smiles, measured) VALUES
  ('Cc1cc(COc2ccc(C(=O)NC3(CC(=O)NO)CCNCC3)cc2)c2ccccc2n1', 100);

###

Assay: Tmax in Beagle dog at 10 mg/kg, po
Type: ADME, organism-based, Canis lupus familiaris
Design: dose 10 mg/kg, route oral
Details: in vivo
measurement name: Tmax (min)

INSERT INTO assay_data (sample_smiles, measurement_name, measured) VALUES
  ('Cc1cc(COc2ccc(C(=O)NC3(CC(=O)NO)CCOCC3)cc2)c2ccccc2n1', 'Tmax', 45);
